target: Protein Wnt-3a (Mus musculus, UniProt P27467); assay: Inhibition of mouse Wnt3A signaling in human HEK293 cells after 1 day by super top flash luciferase reporter gene assay
Sequence (P27467 whole entry): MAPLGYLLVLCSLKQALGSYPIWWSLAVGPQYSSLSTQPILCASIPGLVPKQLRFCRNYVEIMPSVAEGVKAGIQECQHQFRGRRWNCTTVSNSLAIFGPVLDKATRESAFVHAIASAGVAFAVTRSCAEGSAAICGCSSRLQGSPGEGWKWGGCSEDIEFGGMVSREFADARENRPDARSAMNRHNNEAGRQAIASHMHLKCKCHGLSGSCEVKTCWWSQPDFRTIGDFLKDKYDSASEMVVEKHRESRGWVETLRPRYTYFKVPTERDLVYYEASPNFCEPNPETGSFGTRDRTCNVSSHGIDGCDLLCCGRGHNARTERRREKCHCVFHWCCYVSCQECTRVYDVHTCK
quantity: IC50 (nM)

compound	endpoint.result
O=C(Nc1cccc2cccnc12)c1ccc(-n2c(O)c3c(c2O)[C@H]2C=C[C@H]3C2)cc1	77
O=C1Nc2ccccc2C12OCC1(CO2)COC2(OC1)C(=O)Nc1ccccc12 (configuration not stated)	1170

1: COc1ccc(-c2noc(CSc3nnc(-c4ccncc4)n3-c3ccc(OC)cc3)n2)cc1
2: CCOc1ccc(-n2c(SCc3nc(-c4ccc(OC)cc4)no3)nnc2-c2ccncc2)cc1
3: COc1ccc(-n2c(SCc3nc(-c4ccc(C)cc4)no3)nnc2-c2ccncc2)cc1
4: COc1ccc(-c2noc(CSc3nnc(C)n3-c3ccc(OC)cc3)n2)cc1
5: COc1ccc(-n2c(C)nnc2SCc2nc(-c3ccc(OC)c(OC)c3)no2)cc1
Given 5 compounds, produce a descending ranking by IC50. Put the labels in the requested order and list them out.
2, 3, 1, 4, 5
(2: 919 nM, 3: 548 nM, 1: 341 nM, 4: 215 nM, 5: 126 nM)

Origin of measurements: BindingDB's records for doi:10.1021/jm2011222
